- Experiment: Tanguay_ZF_120hpf_AXIS_legacy: (Legacy) Oregon State University Tanguay Lab 120 Hour Post-fertilization zebrafish Assay for Body Axis Malformation (AID 2283635)
Results filed as inconclusive are left out. Active and inactive are the calls of the source. Rule for the calls: active = hit-call score of the fitted dose curve at least 0.9, where 1 is the maximum; inconclusive = response in the unintended direction; inactive = score below 0.9.
Select the matching outcome among Y = active, N = inactive

Use these answered entries as a reference point.
CCCCCCCCCCCCCCCS(=O)(=O)Oc1ccccc1; N
C=C(C)C(=O)OCCC(F)(F)C(F)(F)C(F)(F)C(F)(F)C(F)(F)C(F)(F)F; N
Nc1cccc2c(N)cccc12; N
N#C[C@@H]1CC(F)(F)CN1C(=O)CNC1CC2CCC(C1)N2c1ncccn1 (stereo not given in full); N
CCCCCCCCOC(=O)CCCCCCCCC(=O)OCCCCCCCC; N
C[C@@H]1C[C@H]2[C@@H]3CCC4=CC(=O)C=C[C@]4(C)[C@@]3(F)[C@@H](O)C[C@]2(C)[C@@]1(O)C(=O)COP(=O)(O)O; N

Query block: What was the test verdict on `Oc1cccc(O)c1` ?
Result block: N

Query block: Can you handle CC(O)CO (stereo not given) next?
Result block: N

Query block: Can you handle `CC[C@H](C)[C@@H](C(=O)O)n1sc2ccccc2c1=O` next?
Result block: N

Query block: Can you handle CCc1nn(C2CCCCC2)c2cc(C3(C#N)CCC(C(=O)O)CC3)ccc12 (stereo not given) next?
Result block: Y

Reference for the values: PubChem BioAssay (EPA / NIEHS)
